Test system: U2OS
Assay: Multiplex assay against U2OS
Format: toxicity, cell-based
Details: human, 12 h, 1 µM, compound concentration 1 uM, replicate 1
The entries below come with measured Population Pyknosed Nuclei (%) values attached.
The reply should contain only the number, in %.

{"columns": ["Molecule", "Experimental Readout", "Numeric Readout"],
 "data": [
  ["COc1cccc2cc(-c3nc([C@H]4CC[C@H](C(=O)O)CC4)n4ncnc(N)c34)[nH]c12", "Population Pyknosed Nuclei (%)", 3],
  ["CCCS(=O)(=O)c1nc(NC2CC2)cc(-c2ccc3c(ccn3C3CC(C)(C)NC(C)(C)C3)c2)n1", "Population Pyknosed Nuclei (%)", 21],
  ["O=C1N/C(=N/c2ccccc2F)S/C1=C\\c1ccc(C(=O)O)cc1", "Population Pyknosed Nuclei (%)", 5],
  ["O=C(Nc1ccc(-c2ccnc(Nc3ccc(N4CCOCC4)cc3)n2)cc1)[C@@H]1CCCN1", "Population Pyknosed Nuclei (%)", 11],
  ["C=C1/C(=C\\C=C2/CCC[C@]3(C)[C@@H]([C@H](C)/C=C/[C@H](C)C(C)C)CC[C@@H]23)C[C@@H](O)C[C@@H]1O", "Population Pyknosed Nuclei (%)", 8],
  ["COc1ccc(-c2ccc3c(N4CCOCC4)nc(N4C[C@@H](C)O[C@@H](C)C4)nc3n2)cc1CO", "Population Pyknosed Nuclei (%)", 5]
]}

q: # get_value(readout='Population Pyknosed Nuclei (%)', item= CN[C@@H]1C[C@H]2O[C@@](C)([C@@H]1OC)n1c3ccccc3c3c4c(c5c6ccccc6n2c5c31)C(=O)NC4 )
a: 40

q: Same lookup for COc1cc2ncnc(Nc3ccc(F)c(Cl)c3)c2cc1NC(=O)/C=C/CN1CCCCC1 [DACOMITINIB ANHYDROUS] , please.
a: 8

q: Same lookup for CN1C2CCC1CC(OC(c1ccc(F)cc1)c1ccc(F)cc1)C2.Cl (stereo unspecified) , please.
a: 10

q: Same lookup for O=C(Nc1ccc(-n2nc(-c3cccnc3)cc2C(F)(F)F)cn1)c1ccc(-c2ccccc2)c(F)c1 , please.
a: 12

q: Same lookup for Cc1ccc2nc(NCCN)c3ncc(C)n3c2c1.O=C(O)C(F)(F)F.O=C(O)C(F)(F)F , please.
a: 10

q: Same lookup for CCN1CCN(c2ccc(Nc3cc(N(C)C(=O)Nc4c(Cl)c(OC)cc(OC)c4Cl)ncn3)cc2)CC1 , please.
a: 24

q: Same lookup for CCn1c(=O)c(-c2ccc(-c3cncs3)cc2Cl)cc2cnc(Nc3ccc(N4CCN(C)CC4)cc3)nc21 , please.
a: 11

q: Same lookup for O=C(Nc1cccnn1)N1CCC(=Cc2cccc(Oc3ccc(C(F)(F)F)cn3)c2)CC1 , please.
a: 10

q: Same lookup for Cn1nc(C(F)(F)F)cc1-c1cnc(N2CCc3cc(S(=O)(=O)Nc4c(F)cc(Cl)cc4F)cc(N4CCCC4=O)c32)nc1 , please.
a: 6

q: Same lookup for O=C1NC(=O)C(c2cnc3ccccn23)=C1c1cn2c3c(cc(F)cc13)CN(C(=O)N1CCCCC1)CC2 , please.
a: 17

----------
Tested on: Fibroblast
Assay: Incucyte cell viability with human fibroblast; also: filed as whole numbers so only -1 and 0 and 1 occur
Assay type: toxicity, cell-based
Conditions: 12 h, 10 µM, compound concentration 10 uM, replicate number 2, timepoint 12 hours
Experimental Readout: Growth Rate
Write no unit; give the number alone.

Here is how some compounds turned out for Growth Rate.
{"columns": ["Compound", "Growth Rate"],
 "data": [
  ["COc1cccc2cc(-c3nc([C@H]4CC[C@H](C(=O)O)CC4)n4ncnc(N)c34)[nH]c12 [OSI-027]", 1],
  ["O=S(=O)(NC1CCC(c2cc(F)ccc2F)(S(=O)(=O)c2ccc(Cl)cc2)CC1)C(F)(F)F (configuration not stated) [MRK-560]", 0],
  ["Cn1nc(C(F)(F)F)cc1-c1cnc(N2CCc3cc(S(=O)(=O)Nc4c(F)cc(Cl)cc4F)cc(N4CCCC4=O)c32)nc1 [TP-020]", 1],
  ["O=C1O[C@]2(CC[C@H](C(=O)Nc3ccn(-c4ccccc4F)n3)CC2)c2cnccc21 [MK-0557]", 1]
]}

q: # get_value(readout='Growth Rate', item= C[C@@H]1CN(c2cc(-c3n[nH]c4ccc(OC5(C)CC5)cc34)ncn2)C[C@H](C)O1 [MLi-2] )
a: 0

q: Same lookup for C[C@@H](c1cccc(C#N)c1)n1cc(Cl)cc(C(N)=O)c1=N.Cl , please.
a: 0

q: Same lookup for Cl.Oc1ccc2c3c1O[C@H]1c4[nH]c5c(c4C[C@@]4(O)[C@@H](C2)N(CC2CC2)CC[C@]314)C[C@@]1(O)[C@H]2Cc3ccc(O)c4c3[C@@]1(CCN2CC1CC1)[C@H]5O4 , please.
a: 1
